meta.source: PubChem BioAssay

# test_summary: inhibition of endothelial tube formation, primary screen, imaging, VEGF stimulated, CD31 staining, tube area, NPC library (AID 1117340)
# stated_conditions: VEGF-stimulated ADSC/ECFC co-culture, at 10 µM, active compounds read high
Provide the recorded tube area decrease for the entries that follow.
Kindly provide the numeric value in % only, without the unit symbol.

Task: Give the measured tube area decrease of CCC1(C)CC(=O)NC1=O (configuration not stated) .
Output: -2.9

Task: Give the measured tube area decrease of "O=c1ccc2ccccc2o1" .
Output: -29.2

Task: Give the measured tube area decrease of "Cc1cc(C(C)(C)C)cc(C)c1CC1=NCCN1" .
Output: 5.9

Task: Give the measured tube area decrease of "CN(Cc1cnc2nc(N)nc(N)c2n1)c1ccc(C(=O)N[C@@H](CCC(=O)O)C(=O)O)cc1" .
Output: 57.2

Task: Give the measured tube area decrease of "O=c1[nH]cnc2nc[nH]c12" .
Output: -3.2

Task: Give the measured tube area decrease of CSc1ccc2c(c1)C(N1CCN(C)CC1)Cc1ccccc1S2 (configuration not stated) .
Output: 61.8

Task: Give the measured tube area decrease of "O=C(O)P(=O)(O)O" .
Output: 0.7

Task: Give the measured tube area decrease of CCC(Cc1c(I)cc(I)c(N)c1I)C(=O)O (configuration not stated) .
Output: 4

Task: Give the measured tube area decrease of "Oc1c(I)cc(I)c2cccnc12" .
Output: 108

Task: Give the measured tube area decrease of "COc1ccc2cc3[n+](cc2c1OC)CCc1cc2c(cc1-3)OCO2" .
Output: 57.3

Task: Give the measured tube area decrease of "O=C1CCc2ccc(OCCCCN3CCN(c4cccc(Cl)c4Cl)CC3)cc2N1" .
Output: 3.8

Task: Give the measured tube area decrease of "CC(=O)OCC1=C(C(=O)O)N2C(=O)[C@@H](NC(=O)Cc3cccs3)[C@H]2SC1" .
Output: -3.9

---

# test_summary: NPC library primary testing for decreased DLD-1 cell viability via CellTiter-Glo (AID 1117346)
# stated_conditions: DLD-1 viability, CellTiter-Glo luminescence; at 20 µM (top of the series)
Active and inactive are the calls of the source.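 Rule for the calls: active = compounds that lower survival of DLD-1 colon cancer cells in the luminescence readout, no cutoff given; inactive = the rest.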
Provide the recorded viability decrease (inhibition) for the entries that follow.

Task: Give the measured viability decrease (inhibition) of "COC(=O)[C@@H](N)CS" .
Output: 23.2% (active)

Task: Give the measured viability decrease (inhibition) of CCOC(=O)C1=C(C)NC(C)=C(C(=O)OC)C1c1cccc(Cl)c1Cl (stereo not given) .
Output: 95.6% (active)

Task: Give the measured viability decrease (inhibition) of "CN1CCN(CC(=O)N2c3ccccc3C(=O)Nc3cccnc32)CC1" .
Output: 5.4% (inactive)

Task: Give the measured viability decrease (inhibition) of "C[C@@H]1C[C@H]2[C@@H]3C[C@H](F)C4=CC(=O)C(Cl)=C[C@]4(C)[C@@]3(F)[C@@H](O)C[C@]2(C)[C@@]1(O)C(=O)CO" .
Output: 8.3% (inactive)

Task: Give the measured viability decrease (inhibition) of "Cc1ccnc2c1NC(=O)c1cccnc1N2C1CC1" .
Output: 13.6% (inactive)

Task: Give the measured viability decrease (inhibition) of "C[N+]1(CCCCC[N+]2(C)CCCC2)CCCC1" .
Output: 6.3% (inactive)

Task: Give the measured viability decrease (inhibition) of "CCOc1cc(CC(=O)N[C@@H](CC(C)C)c2ccccc2N2CCCCC2)ccc1C(=O)O" .
Output: 33.3% (inactive)

Task: Give the measured viability decrease (inhibition) of "C[C@@H]1CN(c2c(F)c(F)c3c(=O)c(C(=O)O)cn(C4CC4)c3c2F)C[C@H](C)N1" .
Output: -6.7% (inactive)

Task: Give the measured viability decrease (inhibition) of "Brc1c(NC2=NCCN2)ccc2nccnc12" .
Output: -3.7% (inactive)

Task: Give the measured viability decrease (inhibition) of CSc1ccc2c(c1)C(N1CCN(C)CC1)Cc1ccccc1S2 (stereo not given) .
Output: 102% (active)
